Numbers sourced from patent US20040121946A9.

System: B7-supertype molecules (B*0702, B*3501, B*5101, B*5301, B*5401)
Test: B7-supertype cross-reactive binding
Set-up: species or system human
Conditions: of five B7-supertype alleles tested
Please provide measured No. of B7 Alleles Crossbound for the entries that follow.
Give bare numbers.

# Molecule, Measured On, No. of B7 Alleles Crossbound
records = [
    ("CC(C)[C@H](NC(=O)[C@H](Cc1ccc(O)cc1)NC(=O)CNC(=O)[C@H](CC(=O)O)NC(=O)[C@@H](NC(=O)[C@H](CCC(=O)O)NC(=O)[C@H](CO)NC(=O)[C@@H]1CCCN1C(=O)[C@@H](N)Cc1ccccc1)[C@@H](C)O)C(=O)O [Her2/neu.1120.F1]", "B7-supertype molecules (B*0702, B*3501, B*5101, B*5301, B*5401)", 3),
    ("CC[C@H](C)[C@H](NC(=O)[C@H](C)NC(=O)[C@H](CCSC)NC(=O)[C@H](Cc1c[nH]c2ccccc12)NC(=O)[C@H](CCCCN)NC(=O)[C@@H](NC(=O)[C@@H]1CCCN1C(=O)[C@@H](N)Cc1ccccc1)[C@@H](C)CC)C(=O)O [Her2/neu.884.F1I8]", "B7-supertype molecules (B*0702, B*3501, B*5101, B*5301, B*5401)", 3),
    ("CC[C@H](C)[C@H](NC(=O)[C@@H](NC(=O)[C@H](Cc1c[nH]cn1)NC(=O)[C@H](CC(C)C)NC(=O)[C@H](CC(C)C)NC(=O)[C@H](C)NC(=O)[C@H](CCC(N)=O)NC(=O)[C@H](Cc1c[nH]cn1)NC(=O)[C@@H]1CCCN1C(=O)[C@@H](N)Cc1ccccc1)[C@@H](C)O)C(=O)O [Her2/neu.488.F1I10]", "B7-supertype molecules (B*0702, B*3501, B*5101, B*5301, B*5401)", 4),
]

Q: Value lookup for No. of B7 Alleles Crossbound; key = CC[C@H](C)[C@H](NC(=O)[C@@H]1CCCN1C(=O)[C@H](CCSC)NC(=O)[C@H](Cc1ccc(O)cc1)NC(=O)[C@H](CO)NC(=O)[C@H](CC(C)C)NC(=O)[C@H](CC(=O)O)NC(=O)[C@@H]1CCCN1C(=O)[C@@H](N)CCCCN)C(=O)O [Her2/neu.605]
A: 1

====

Target: HLA-A*6801 (Homo sapiens, UniProt P04439, A269V/D185E/E176V/E277Q/E87N/F33Y/G231S/I121M/I166T/I218V/L180W/L300P/L318F/N151K/P208A/P217A/Q86R/R169H/T345S)
Settings: Table XXIII, HLA-A3 supermotif-bearing peptides
pIC50: −log10 of the molar value.
Decide by pIC50: equal to or exceeding 8 means 1 (yes), less means 0 (no).

Answered cases to consult:
# Chemical String, Category
records = [
    ("CC[C@H](C)[C@H](NC(=O)[C@H](CCC(=O)O)NC(=O)[C@@H](NC(=O)[C@H](CC(C)C)NC(=O)[C@H](CO)NC(=O)[C@H](CCCNC(=N)N)NC(=O)[C@H](CC(C)C)NC(=O)[C@@H](N)CCC(N)=O)[C@@H](C)O)C(=O)N[C@@H](CC(C)C)C(=O)N[C@@H](CCCCN)C(=O)O", "0 (no)"),
    ("CC[C@H](C)[C@H](NC(=O)[C@H](CC(=O)O)NC(=O)[C@H](CCCCN)NC(=O)[C@H](Cc1c[nH]c2ccccc12)NC(=O)[C@H](CC(C)C)NC(=O)[C@@H](NC(=O)[C@@H](N)[C@@H](C)O)C(C)C)C(=O)N[C@@H](Cc1ccccc1)C(=O)N[C@@H](Cc1c[nH]cn1)C(=O)N[C@@H](CCCNC(=N)N)C(=O)O", "0 (no)"),
    ("CC[C@H](C)[C@H](N)C(=O)N[C@@H](CC(C)C)C(=O)N[C@@H](CCCCN)C(=O)NCC(=O)NCC(=O)N[C@H](C(=O)N[C@@H](CC(C)C)C(=O)N[C@H](C(=O)N[C@@H](CCC(N)=O)C(=O)N[C@@H](CCCNC(=N)N)C(=O)O)[C@@H](C)CC)C(C)C", "0 (no)"),
]

Moving on to another compound below.
Q: Decide: pIC50 of "CC(C)C[C@H](NC(=O)[C@H](CCC(N)=O)NC(=O)[C@H](CC(=O)O)NC(=O)[C@H](Cc1c[nH]c2ccccc12)NC(=O)[C@@H]1CCCN1C(=O)[C@@H](NC(=O)[C@@H](NC(=O)[C@@H](N)Cc1c[nH]cn1)[C@@H](C)O)C(C)C)C(=O)N[C@@H](Cc1ccccc1)C(=O)N[C@@H](CCCNC(=N)N)C(=O)O" >= 8?
A: 1 (yes)
